# EXPERIMENTAL_TARGET: T1, NHERF1 PDZ1 (1–140) (human, UniProt O14745 1-140)
# T1 construct: Na+/H+ Exchanger Regulatory Factor-1 (NHERF1, EBP50), human, PDZ1 construct, residues 1-140; Plasmid pET16-N1P1 provided by D. F. Mierke; also called WT PDZ1 (1–140); pET16-N1P1; source: E. coli BL21 (DE3), purified (Ni-NTA-agarose)
# T1 sequence (looked up): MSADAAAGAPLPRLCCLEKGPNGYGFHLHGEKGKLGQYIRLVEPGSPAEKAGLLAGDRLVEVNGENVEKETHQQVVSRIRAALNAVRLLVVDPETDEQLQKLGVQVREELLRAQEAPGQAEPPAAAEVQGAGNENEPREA
# ASSAY_EXPLANATION: fluorescence polarisation; as a1 but at pH 6.0; 0.5 uM labeled NPT2A peptide, WT PDZ1 (1–140)
# CONDITION_DETAILS: both partners purified
Where no end group is shown, it is not given here.
MEASUREMENT_TYPE: Kd (µM)
Enter your answer as a number in µM; do not include the unit.

If you can, please state the reported Kd value of {5(6)‑carboxytetramethylrhodamine}-ELPPATPSPRLALPAHHNATRL (type II sodium-dependent phosphate co-transporter (NPT2A, SLC34A1), 22-residue carboxy-terminal fragment; also called labeled NPT2A peptide; source: synthetic peptide (solid phase, Fmoc; HPLC purified)) [rhodamine-labeled 22-residue carboxy-terminal NPT2A peptide] .
8

Data origin, for the record: paper PMC4466390
